- System: pigweed (Amaranthus retroflexus)
- protocol-notes: Test A preemergence, pigweed
- Format: in vivo
- assay-context: 125 g ai/ha, 0 to 100 scale (0 no effect, 100 complete control)
Please go through the items and note down their Plant response rating, Pigweed.
Keep it simple and answer with nothing but the number.

Prompt: Can you share its Plant response rating, Pigweed? I mean this compound: CN1CC(c2cccc(Oc3ccc(F)cn3)c2)C(C(=O)Nc2cccc(C#N)c2F)C1=O (single isomer, unassigned)
Response: 20

Prompt: Can you share its Plant response rating, Pigweed? I mean this compound: CN1CC(c2cccc(Oc3ccc(F)cc3)c2)C(C(=O)Nc2cccc(F)c2F)C1=O (single isomer, unassigned)
Response: 40

Prompt: Can you share its Plant response rating, Pigweed? I mean this compound: CN1CC(c2cccc(Oc3ccc(C(F)(F)F)cn3)c2)C(C(=O)Nc2cccc(F)c2F)C1=O (single isomer, unassigned)
Response: 30

Prompt: Can you share its Plant response rating, Pigweed? I mean this compound: O=C1NCC(c2cccc(OCc3ccccc3)c2)C1C(=O)Nc1ccc(F)c(F)c1F (stereo not shown)
Response: 0

Prompt: Can you share its Plant response rating, Pigweed? I mean this compound: O=C1NCC(c2cccc(OCc3ccco3)c2)C1C(=O)Nc1ccccc1C(F)(F)F (stereo not shown)
Response: 0

Prompt: Can you share its Plant response rating, Pigweed? I mean this compound: CN1CC(c2cccc(Oc3ccc(C(F)(F)F)cn3)c2)C(C(=O)Nc2ccccc2F)C1=O (single isomer, unassigned)
Response: 40

Prompt: Can you share its Plant response rating, Pigweed? I mean this compound: O=C1NCC(c2cccc(Cn3ccc(C(F)(F)F)n3)c2)C1C(=O)Nc1ccc(F)c(F)c1F (stereo not shown)
Response: 0

Prompt: Can you share its Plant response rating, Pigweed? I mean this compound: O=C1NCC(c2cccc(OCc3ccccc3)c2)C1C(=O)Nc1cccc(F)c1F (stereo not shown)
Response: 0

Prompt: Can you share its Plant response rating, Pigweed? I mean this compound: CN1CC(c2cccc(Oc3ncc(F)cn3)c2)C(C(=O)Nc2cccc(F)c2F)C1=O (single isomer, unassigned)
Response: 80

Prompt: Can you share its Plant response rating, Pigweed? I mean this compound: CN1CC(c2cccc(Oc3ncc(F)cc3F)c2)C(C(=O)Nc2cccc(F)c2F)C1=O (single isomer, unassigned)
Response: 0

Prompt: Can you share its Plant response rating, Pigweed? I mean this compound: O=C1NCC(c2ccccc2Cn2ccc(C(F)(F)F)n2)C1C(=O)Nc1ccc(F)c(F)c1F (stereo not shown)
Response: 0

Prompt: Can you share its Plant response rating, Pigweed? I mean this compound: O=C1NCC(c2cccc(OCC3CC3)c2)C1C(=O)Nc1cccc(F)c1F (stereo not shown)
Response: 0

Prompt: Can you share its Plant response rating, Pigweed? I mean this compound: CN1CC(c2cccc(Oc3ccc(F)cn3)c2)C(C(=O)Nc2cccc(F)c2F)C1=O (single isomer, unassigned)
Response: 70
